Recorded pIC50, one value per entry.
Target: Signal transducer and activator of transcription 1-alpha/beta (Homo sapiens)
Sequence (P42224 whole entry): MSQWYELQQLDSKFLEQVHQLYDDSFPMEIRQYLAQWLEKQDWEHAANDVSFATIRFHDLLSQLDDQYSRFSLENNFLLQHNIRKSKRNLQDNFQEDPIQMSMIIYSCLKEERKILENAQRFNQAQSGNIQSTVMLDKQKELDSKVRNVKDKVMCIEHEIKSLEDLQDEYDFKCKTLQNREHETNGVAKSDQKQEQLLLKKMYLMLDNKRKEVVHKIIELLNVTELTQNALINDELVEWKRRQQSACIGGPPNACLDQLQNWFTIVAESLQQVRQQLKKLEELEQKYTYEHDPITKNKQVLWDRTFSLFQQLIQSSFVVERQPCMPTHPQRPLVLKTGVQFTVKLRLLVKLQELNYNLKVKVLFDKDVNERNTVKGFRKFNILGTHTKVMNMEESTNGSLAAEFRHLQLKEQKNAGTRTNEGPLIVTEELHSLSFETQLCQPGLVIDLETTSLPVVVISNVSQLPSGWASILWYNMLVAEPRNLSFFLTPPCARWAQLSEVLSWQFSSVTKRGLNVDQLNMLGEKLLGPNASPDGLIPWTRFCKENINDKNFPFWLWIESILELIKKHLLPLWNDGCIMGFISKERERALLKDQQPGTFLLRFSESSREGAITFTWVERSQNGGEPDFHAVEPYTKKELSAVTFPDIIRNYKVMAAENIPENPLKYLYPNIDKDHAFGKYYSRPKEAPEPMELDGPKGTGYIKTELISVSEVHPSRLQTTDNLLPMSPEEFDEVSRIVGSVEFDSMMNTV
Assay: Inhibition of STAT1 dimer DNA binding activity after 30 mins
Field pIC50 (float): negative decimal logarithm of the concentration in molar.

>  <molecule>
CC(C)C[C@H](NC(=O)[C@H](Cc1ccc(OP(=O)(O)O)cc1)NC(=O)c1ccc(C#N)cc1)C(=O)NCc1ccncc1

>  <observed.value>
3.40

$$$$

// assay Signal transducer and activator of transcription 1-alpha/beta (Homo sapiens), entry COc1cccc(NC(=O)[C@H](CC(C)C)NC(=O)[C@H](Cc2ccc(OP(=O)(O)O)cc2)NC(=O)c2ccc(C#N)cc2)c1 , pIC50 value = 3.25

// assay Signal transducer and activator of transcription 1-alpha/beta (Homo sapiens), entry CC(C)C[C@H](NC(=O)[C@H](Cc1ccc(OP(=O)(O)O)cc1)NC(=O)c1ccc(C#N)cc1)C(=O)NCc1ccccc1 , pIC50 value = 3.12

// assay Signal transducer and activator of transcription 1-alpha/beta (Homo sapiens), entry CC(C)C[C@H](NC(=O)[C@H](Cc1ccc(OP(=O)(O)O)cc1)NC(=O)c1ccc(C#N)cc1)C(=O)NCCCO , pIC50 value = 3.68

// assay Signal transducer and activator of transcription 1-alpha/beta (Homo sapiens), entry CC(C)C[C@H](NC(=O)[C@H](Cc1ccc(OP(=O)(O)O)cc1)NC(=O)c1ccc(C#N)cc1)C(=O)NC1CCCCC1 , pIC50 value = 3.22

// assay Signal transducer and activator of transcription 1-alpha/beta (Homo sapiens), entry CC(C)CNC(=O)[C@H](CC(C)C)NC(=O)[C@H](Cc1ccc(OP(=O)(O)O)cc1)NC(=O)c1ccc(C#N)cc1 (stereo in doubt; form 2) , pIC50 value = 3.60

// assay Signal transducer and activator of transcription 1-alpha/beta (Homo sapiens), entry CC(C)C[C@H](NC(=O)[C@H](Cc1ccc(OP(=O)(O)O)cc1)NC(=O)c1ccc(C#N)cc1)C(=O)Nc1ccccc1 , pIC50 value = 3.42

// assay Signal transducer and activator of transcription 1-alpha/beta (Homo sapiens), entry CC(C)CNC(=O)[C@H](CC(C)C)NC(=O)[C@H](Cc1ccc(OP(=O)(O)O)cc1)NC(=O)c1ccc(C#N)cc1 (stereo in doubt; form 1) , pIC50 value = 3.12

Value source: ChEMBL document CHEMBL1148868
